Source: patent US10167272B2

Molecular target: human muscarinic M2 receptor (Homo sapiens, UniProt P08172)
Sequence (P08172 1-466): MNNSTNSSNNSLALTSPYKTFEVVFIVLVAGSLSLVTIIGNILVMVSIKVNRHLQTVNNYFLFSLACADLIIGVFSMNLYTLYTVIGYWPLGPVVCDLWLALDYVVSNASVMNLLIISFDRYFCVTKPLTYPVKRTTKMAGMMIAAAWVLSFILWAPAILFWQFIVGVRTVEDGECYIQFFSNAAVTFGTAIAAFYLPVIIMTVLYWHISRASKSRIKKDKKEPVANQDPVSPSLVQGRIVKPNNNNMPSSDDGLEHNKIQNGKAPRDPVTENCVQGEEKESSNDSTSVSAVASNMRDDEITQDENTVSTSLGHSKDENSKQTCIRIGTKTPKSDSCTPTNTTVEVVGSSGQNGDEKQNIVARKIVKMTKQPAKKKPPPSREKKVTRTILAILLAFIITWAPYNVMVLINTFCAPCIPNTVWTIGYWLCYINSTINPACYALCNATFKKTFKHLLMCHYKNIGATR
Assay: Alphascreen Surefire phospho-ERK1/2 functional assay, M2
Format: cell-based
Settings: CHO, read-out: % Emax cf. ACh (M2), CHO cells stably expressing human M2, relative to ACh
Description: ERK1/2 phosphorylation is a downstream consequence of both Gq/11 and Gi/o protein coupled receptor activation, making it highly suitable for the assessment of M1, M3 (Gq/11 coupled) and M2, M4 receptors (Gi/o coupled), rather than using different assay formats for different receptor subtypes. CHO cells stably expressing the human muscarinic M1, M2, M3 or M4 receptor were plated (25K/well) onto 96-well tissue culture plates in MEM-alpha+10% dialysed FBS. […]
outcome.measure: Emax (%)

Would you please look over these solved cases?
CCOC(=O)N1CCC2(CC(N3CCC(N(CC)CC(F)F)CC3)C2)C1 (single isomer, unassigned) [2-46 Isomer 2] :: 5
CCOC(=O)N1CCC2(CC(N3CCC(N(Cc4ccccc4)CC(F)(F)F)CC3)C2)C1 (single isomer, unassigned) [2-59 Isomer 2] :: 9
CCOC(=O)N1CCC2(CC(N3CCC(C(C)n4cccn4)CC3)C2)C1 (single isomer, unassigned) [2-65 Isomer 2a] :: 15

1: CCOC(=O)N1CCC2(CC(N3CCC(N(Cc4cnco4)CC(F)(F)F)CC3)C2)C1 (single isomer, unassigned) [2-62 Isomer 2]
2: CCOC(=O)N1CCC2(CC(N3CCC(SCc4ccccc4)CC3)C2)C1 (single isomer, unassigned) [2-67 Isomer 2]
3: CCOC(=O)N1CCC2(CC(N3CCC(N(CC4(C)CCC4)C(C)=O)CC3)C2)C1 (single isomer, unassigned) [Example 2-21 Isomer 2]
query: Ranking field: Emax; order: falling. Your task in answering is to list the labels in the requested order.
result: 3, 1, 2
